Every entry's value here was drawn from ChEMBL document CHEMBL1201862.

Target or system HCT-15; recorded quantity GI50.
ENDPOINT LABEL: GI50

>>> reported_measurement("CC(C)=CCC\\C(C)=C/C=C/C(C)=C\\C=C\\C(C)=C/C=C/C=C(C)\\C=C\\C=C(C)/C=C/C=C(/C)CCC=C(C)C")
"> 100 µM"
>>> reported_measurement("COC(=O)[C@H]1C=C[C@@H](C)n2c(=O)c3ccccc3c(=O)n21")
"> 100 µM"
>>> reported_measurement("CCCCCCC(O)C/C=C/CCCCCC/C(C(=O)OC)=C(/O)C(=O)OCC (stereo not given)")
"> 100 µM"
>>> reported_measurement("O=[N+]([O-])/C(Cl)=C(\\NCCO)C(Cl)=C(Cl)Cl")
"30.8 µM"
>>> reported_measurement("COc1ccc(/C=C\\c2cc(OC)c(OC)c(OC)c2)cc1OC(=O)CCC(=O)O")
"< 0.0001 µM"
>>> reported_measurement("CC(=O)Nc1ccccc1Sc1ccccc1")
"> 100 µM"
>>> reported_measurement("CCCCN(Cc1ccccc1)/C(=N/C#N)N(Cc1ccccc1)Cc1ccccc1")
"14.4 µM"
>>> reported_measurement("N[C@H]1CCc2c1nc1c(c2-c2ccccc2)CC[C@@H]1N")
"34.4 µM"
>>> reported_measurement("CC1(C)Oc2ccc(NC(=O)CCC(N)C(=O)O)cc2O1 (stereo not given)")
"> 100 µM"
>>> reported_measurement("O=C1c2ccccc2C(=O)c2nc(-c3ccccc3)c(-c3ccccc3)nc21")
"> 88.1 µM"

====

Test system: SF-268
Test: NCI tumour cell line growth inhibition, 48 h
Activity calls are given as the source filed them. Rule as the data show it: active = GI50 up to about 1.1 µM and inactive = higher.
Outcome codes: active, inactive

>>> qualitative_label("CC(=O)OCC1=C(C)C[C@H]([C@@H](COC(C)=O)C2CCC3C4C[C@H]5O[C@]56CC=CC(=O)[C@]6(C)C4CC[C@@]32C)OC1=O (some centres undefined)")
"active"
>>> qualitative_label("CCC(=O)c1c(NOC2OC(COC(C)=O)C(OC(C)=O)C(OC(C)=O)C2OC(C)=O)nc(OC)n(C)c1=O (centres undefined)")
"inactive"
>>> qualitative_label("COCC(OC)C(CC=C(C#N)C#N)OC (centres undefined)")
"inactive"
>>> qualitative_label("N#Cc1c(Cl)c2cccnc2n2c1nc1ccccc12")
"inactive"

====

Test system: EKVX
Experiment: NCI tumour cell line growth inhibition, 48 h
Activity calls are given as the source filed them. Cut-off read from the data, not from the text of the source: active = GI50 up to about 1.1 µM and inactive = higher.
Labels: True for active, False for inactive

>>> qualitative_label("COC(=O)c1cccc2cccc(C(=O)Nc3ccc(C)cc3C)c12")
"False"
>>> qualitative_label("Cc1ccc(S(=O)(=O)NC(=O)NC2=NC(C)(C)N(c3ccc(Cl)c(Cl)c3)C(N)=N2)cc1")
"False"
>>> qualitative_label("C[N+]1=C2[B-](C(C)(C)C)=[N+](C(C)(C)C)[B-]2(C(C)(C)C)[N+](C)=C2[B-](C(C)(C)C)=[N+](C(C)(C)C)[B-]21C(C)(C)C (centres undefined)")
"False"
>>> qualitative_label("Cn1cc(NC(=O)c2cc(NC(=O)CCCCCC(=O)Nc3cc(C(=O)Nc4cc(C(=O)NCCC(=N)N)n(C)c4)n(C)c3)cn2C)cc1C(=O)NCCC(=N)N")
"False"
>>> qualitative_label("O=c1[nH]c(C23CC4CC(CC(C4)C2)C3)cc2c1c(=O)oc1ccccc12")
"True"
>>> qualitative_label("COc1ccc2c(c1)CCN=C2c1ccccc1CCCCl")
"False"
>>> qualitative_label("O=c1oc2cc(O)ccc2c2oc3cc(O)ccc3c12")
"False"
>>> qualitative_label("COc1ccccc1-c1cc(O)c2c(C)ccnc2n1")
"False"
>>> qualitative_label("O=S(=O)(O)c1ccc(/N=N\\c2c(O)ccc3cc(Br)ccc23)cc1")
"False"
>>> qualitative_label("Cc1ccsc1/C=N/Nc1ncccn1")
"False"
>>> qualitative_label("CN(C)C(=S)Nc1nnc(Nc2ccccc2)s1")
"False"
>>> qualitative_label("CCOc1cc2c(cc1OC(C)=O)C(=O)CC[C@H]1C3CC[C@H](OC(C)=O)[C@@]3(C)CC[C@H]21 (some centres undefined)")
"False"
>>> qualitative_label("CCOc1cc(C2CC(c3ccc(NS(=O)(=O)c4cc([N+](=O)[O-])ccc4C)cc3)=NN2C(=O)c2ccccc2)ccc1O (centres undefined)")
"False"
>>> qualitative_label("Cc1ccccc1NC(=O)C(=O)C(C1OC(=O)c2ccccc21)[N+](=O)[O-] (centres undefined)")
"False"
>>> qualitative_label("O=c1c(F)cn2c(=O)n1CCCCCCCn1c(=O)c(F)cn(c1=O)CCCCCCC2")
"False"
>>> qualitative_label("C/C(=N\\NC(=S)N1CCOCC1)c1nc2cccnc2[nH]1")
"False"
>>> qualitative_label("COc1cc2c(cc1O)C(c1cc(O)c(O)c(OC)c1)C(O)(C(=O)O)C(CO)C2O (centres undefined)")
"False"
>>> qualitative_label("COc1ccccc1NC(=S)N/N=C(/c1ccccc1)c1ccccn1")
"True"
>>> qualitative_label("O=C1c2ccccc2C(=O)c2nc(-c3ccccc3)c(-c3ccccc3)nc21")
"False"
>>> qualitative_label("CC(=O)c1ccc(NC(=O)C(=O)C(C(=O)/C=C/c2ccccc2)C2OC(=O)c3ccccc32)cc1 (centres undefined)")
"False"
>>> qualitative_label("CNc1nc(OC)c2c(n1)n(C)c[n+]2C")
"False"
>>> qualitative_label("CSc1nc(-c2ccccc2)c2c(n1)-c1ccccc1CC2")
"False"
>>> qualitative_label("CC1(C)C(C#N)=[N+]([O-])C(C)(C)N1O")
"False"
>>> qualitative_label("O=NN(CCCl)C(=O)NCCCl")
"False"
>>> qualitative_label("COc1ccc(-n2c(=O)[nH]n(C(C)=O)c2=O)cc1")
"False"
>>> qualitative_label("O=CC12CCCN1CCC2")
"False"
>>> qualitative_label("NC(=O)N/N=C(\\Cc1cc(=O)oc2cc(O)ccc12)C(=O)Nc1ccccc1C(N)=O")
"False"
>>> qualitative_label("COC1=CC(=O)C2=C(C1=O)[C@H]1CC[C@]3(C)[C@@H](OC(C)=O)CC[C@H]3[C@@H]1CC2")
"False"
>>> qualitative_label("O=C(Nc1cnc(O)nc1O)C(Cl)Cl")
"False"
